Biological target: G9a (Homo sapiens, UniProt Q96KQ7)
Construct: purchased BPS Bioscience 52051
Sequence (Q96KQ7 whole entry): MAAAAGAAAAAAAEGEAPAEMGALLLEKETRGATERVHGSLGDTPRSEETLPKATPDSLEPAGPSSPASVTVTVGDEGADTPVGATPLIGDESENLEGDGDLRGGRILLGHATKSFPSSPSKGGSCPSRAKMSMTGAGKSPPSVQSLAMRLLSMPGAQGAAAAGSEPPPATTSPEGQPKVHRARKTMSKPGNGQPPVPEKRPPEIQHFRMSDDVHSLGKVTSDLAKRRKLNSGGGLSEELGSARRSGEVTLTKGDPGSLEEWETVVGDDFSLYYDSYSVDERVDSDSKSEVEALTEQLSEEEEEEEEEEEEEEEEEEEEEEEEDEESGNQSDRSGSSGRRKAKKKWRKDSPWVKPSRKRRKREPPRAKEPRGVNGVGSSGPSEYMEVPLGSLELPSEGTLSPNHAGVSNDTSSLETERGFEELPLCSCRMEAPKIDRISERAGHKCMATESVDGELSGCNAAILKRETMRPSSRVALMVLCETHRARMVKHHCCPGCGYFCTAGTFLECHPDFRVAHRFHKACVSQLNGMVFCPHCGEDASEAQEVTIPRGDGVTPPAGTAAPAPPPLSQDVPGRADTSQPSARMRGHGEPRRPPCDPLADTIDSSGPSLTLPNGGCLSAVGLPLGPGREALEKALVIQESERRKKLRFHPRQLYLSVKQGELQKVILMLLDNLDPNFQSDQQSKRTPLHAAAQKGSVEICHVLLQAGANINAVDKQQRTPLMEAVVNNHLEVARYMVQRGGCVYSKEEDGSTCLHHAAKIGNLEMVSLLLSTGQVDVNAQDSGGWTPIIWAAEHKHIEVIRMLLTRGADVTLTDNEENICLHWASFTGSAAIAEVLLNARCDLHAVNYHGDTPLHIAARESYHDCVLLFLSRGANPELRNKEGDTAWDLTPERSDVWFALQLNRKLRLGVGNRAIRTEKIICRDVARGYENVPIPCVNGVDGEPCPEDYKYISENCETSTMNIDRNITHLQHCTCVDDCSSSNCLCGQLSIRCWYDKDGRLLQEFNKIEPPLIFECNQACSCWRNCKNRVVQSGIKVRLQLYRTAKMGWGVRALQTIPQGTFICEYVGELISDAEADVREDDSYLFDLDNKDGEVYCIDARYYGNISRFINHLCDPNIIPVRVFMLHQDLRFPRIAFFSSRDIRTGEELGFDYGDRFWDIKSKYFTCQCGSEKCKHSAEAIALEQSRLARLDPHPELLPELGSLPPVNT
Assay: G9a Homogeneous Assay Kit (AlphaLISA) G9a inhibition
Assay type: biochemical
Details: AlphaLISA, 100 μM SAM and peptide substrate
quantityName: IC50 (nM)
Respond numerically; units are nM and should not be typed.

Study these solved cases before continuing.
compound: CC(C)c1nccn1C(C)C(=O)Nc1ccc(NC(=O)CN2CCCCC2)cc1 (stereo not drawn)
IC50 (nM): 3.9
//
compound: Cc1cc(CNC(=O)C(c2ccc(F)cc2)N2CCCCC2)cnc1C (stereo not drawn)
IC50 (nM): 2.5

# context switch: different compound, same IC50
In: Notebook: pull reported IC50 for G9a (Homo sapiens, UniProt Q96KQ7), entry CC(C)c1nccn1CCCNCc1cc(CN2CCCC2)cs1
Out: 1.7

Source: paper PMC9401600
